# system-under-test: human E3 ubiquitin-protein ligase RNF31 (HOIP) (Homo sapiens)
# test-protocol: Cell-free HTRF-based HOIP inhibition assay
# Type: biochemical
# settings: bin printed as 100 nM < IC50 ≤ 1.0 μM (lower bound in the cell to the left)
pIC50: −log10 of the molar value.
readout-kind: pIC50

What value of measured pIC50 is listed for O=C(NCC=CS(=O)(=O)c1ccccc1)c1cc2c([nH]c1=O)CCN(C(=O)OC1CCOC1)C2 (stereo not shown) [Example 82] ? ≥ 6.00

----------
Listing of entries alongside the reported IC50.
# system-under-test: human E3 ubiquitin-protein ligase RNF31 (HOIP) (Homo sapiens, UniProt Q96EP0)
# Sequence (Q96EP0 695-1072 limits assumed): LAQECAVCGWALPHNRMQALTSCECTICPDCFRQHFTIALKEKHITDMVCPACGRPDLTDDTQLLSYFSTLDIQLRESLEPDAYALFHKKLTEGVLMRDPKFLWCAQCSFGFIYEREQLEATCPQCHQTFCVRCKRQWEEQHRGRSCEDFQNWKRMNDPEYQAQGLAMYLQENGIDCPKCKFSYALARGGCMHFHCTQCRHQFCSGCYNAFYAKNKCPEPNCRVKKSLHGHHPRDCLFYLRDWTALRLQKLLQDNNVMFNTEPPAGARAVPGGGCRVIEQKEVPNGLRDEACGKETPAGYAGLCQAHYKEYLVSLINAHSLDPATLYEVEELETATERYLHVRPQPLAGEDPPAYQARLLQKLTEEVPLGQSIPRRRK
# test-protocol: Cell-free HTRF-based HOIP inhibition assay
# Assay type: biochemical

In the examples that follow, each entry is paired with its recorded IC50.
INSERT INTO results (compound, assay_value) VALUES
  ('COC(C)(C)CC(=O)N1CCc2[nH]c(=O)c(C(=O)NC/C=C/S(=O)(=O)c3ccccc3)cc2C1', '≤ 10000 nM'),
  ('N=S(=O)(/C=C/CNC(=O)c1cc2c([nH]c1=O)CCCC2)c1ccc(N2CCOCC2)cc1 (centres unmarked)', '≤ 1000 nM'),
  ('N=S(=O)(/C=C/CNC(=O)c1cc2c([nH]c1=O)CCCC2)c1ccc(F)cc1 (centres unmarked)', '≤ 1000 nM'),
  ('O=C(NC/C=C/S(=O)(=O)c1ccccc1)c1cc2c([nH]c1=O)CCN(C(=O)OC1CCCC1)C2', '≤ 100 nM'),
  ('COc1ccc(S(=N)(=O)/C=C/CNC(=O)c2cc3c([nH]c2=O)CCOC3)cc1F (centres unmarked)', '≤ 1000 nM'),
  ('O=C(NC/C=C/S(=O)(=O)c1cccc(F)c1)c1cc2c([nH]c1=O)CCCC2', '≤ 100 nM');

What value of measured IC50 is listed for N=S(=O)(/C=C/CNC(=O)c1cc2c([nH]c1=O)CCCC2)c1cccc(Cl)c1 (centres unmarked) ? ≤ 1000 nM

What value of measured IC50 is listed for CN1CCCc2cc(S(=N)(=O)/C=C/CNC(=O)c3cc4c([nH]c3=O)CCCC4)ccc21 (centres unmarked) ? ≤ 100 nM
